Where these numbers come from: patent US20160264681A1

systemUnderTest: T1, GDF11 (UniProt O95390 299-407)
T1 sequence (looked up): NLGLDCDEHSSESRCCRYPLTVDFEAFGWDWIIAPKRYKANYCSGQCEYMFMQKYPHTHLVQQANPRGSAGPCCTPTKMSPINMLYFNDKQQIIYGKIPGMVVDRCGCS
assayExplanation: cell-based or functional assay
# key: entry, value: IC50 (ng/mL), reporter gene assay, conditioned media
readoutLabel: IC50 (ng/mL), reporter gene assay, conditioned media

{"columns": ["binder", "measValue"],
 "data": [
  ["ActRIIb-hFc (R64, 20-131) (Fc fusion) GRGEAETRECIYYNANWELERTNQSGLERCEGEQDKRLHCYASWRNSSGTIELVKKGCWLDDFNCYDRQECVATEENPQVYFCCCEGNFCNERFTHLPEAGGPEVTYEPPPTGGGTHTCPPCPAPELLGGPSVFLFPPKPKDTLMISRTPEVTCVVVDVSHEDPEVKFNWYVDGVEVHNAKTKPREEQYNSTYRVVSVLTVLHQDWLNGKEYKCKVSNKALPVPIEKTISKAKGQPREPQVYTLPPSREEMTKNQVSLTCLVKGFYPSDIAVEWESNGQPENNYKTTPPVLDSDGSFFLYSKLTVDKSRWQQGNVFSCSVMHEALHNHYTQKSLSLSPGK", "120 ng/mL"],
  ["ActRIIb-hFc (R64, 20-132) (Fc fusion) GRGEAETRECIYYNANWELERTNQSGLERCEGEQDKRLHCYASWRNSSGTIELVKKGCWLDDFNCYDRQECVATEENPQVYFCCCEGNFCNERFTHLPEAGGPEVTYEPPPTAGGGTHTCPPCPAPELLGGPSVFLFPPKPKDTLMISRTPEVTCVVVDVSHEDPEVKFNWYVDGVEVHNAKTKPREEQYNSTYRVVSVLTVLHQDWLNGKEYKCKVSNKALPVPIEKTISKAKGQPREPQVYTLPPSREEMTKNQVSLTCLVKGFYPSDIAVEWESNGQPENNYKTTPPVLDSDGSFFLYSKLTVDKSRWQQGNVFSCSVMHEALHNHYTQKSLSLSPGK", "87 ng/mL"],
  ["ActRIIb-hFc (R64, 20-128) (Fc fusion) GRGEAETRECIYYNANWELERTNQSGLERCEGEQDKRLHCYASWRNSSGTIELVKKGCWLDDFNCYDRQECVATEENPQVYFCCCEGNFCNERFTHLPEAGGPEVTYEPGGGTHTCPPCPAPELLGGPSVFLFPPKPKDTLMISRTPEVTCVVVDVSHEDPEVKFNWYVDGVEVHNAKTKPREEQYNSTYRVVSVLTVLHQDWLNGKEYKCKVSNKALPVPIEKTISKAKGQPREPQVYTLPPSREEMTKNQVSLTCLVKGFYPSDIAVEWESNGQPENNYKTTPPVLDSDGSFFLYSKLTVDKSRWQQGNVFSCSVMHEALHNHYTQKSLSLSPGK", "130 ng/mL"]
]}
